kon values, listed per item
biological target: RSV F protein (immobilized on the BIAcore sensor chip) (respiratory syncytial virus); test: BIAcore, immobilized F protein;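 note: fab fragments as analytes binding F protein coupled to the chip via EDC/NHS chemistry, with blank surface signal subtracted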
experimental readout: kon (M⁻¹ s⁻¹)

binder	experimental readout	unit text	value
A13a11 (Fab fragment) (Fab, V domains shown, Fab) VH: QVTLRESGPALVKPTQTLTLTCTFSGFSLSTAGMSVGWIRQPPGKALEWLADIWWDDKKHYNPSLKDRLTISKDTSKNQVVLKVTNMDPADTATYYCARDMIFNWYFDVWGAGTTVTVSS VL: DIQMTQSPSTLSASVGDRVTITCSASSSVGYMHWYQQKPGKAPKLLIYDTYRHASGVPSRFSGSGSGTEFTLTISSLQPDDFATYYCFQGSGYPFTFGGGTKLEIK	kon	M⁻¹ s⁻¹	735000
Y10H6 (Fab fragment) (Fab, V domains shown) VH: QVTLRESGPALVKPTQTLTLTCTFSGFSLSTAGMSVGWIRQPPGKALEWLADIWWDDKKDYNPSLKSRLTISKDTSKNQVVLKVTNMDPADTATYYCARDMIFNWYFDVWGAGTTVTVSS VL: DIQMTQSPSTLSASVGDRVTITCSASSSVGYMHWYQQKPGKAPKLLIYDTRYLSSGVPSRFSGSGSGTEFTLTISSLQPDDFATYYCFQGSGYPFTFGGGTKLEIK	kon	M⁻¹ s⁻¹	757000
1X-493L1FR (Fab fragment) (Fab, V domains shown) VH: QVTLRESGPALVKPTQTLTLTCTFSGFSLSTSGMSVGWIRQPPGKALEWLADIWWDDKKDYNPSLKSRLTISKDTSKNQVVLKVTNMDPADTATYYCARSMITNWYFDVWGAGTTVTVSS VL: DIQMTQSPSTLSASVGDRVTITCSASSSVGYMHWYQQKPGKAPKLLIYDTSKLASGVPSRFSGSGSGTEFTLTISSLQPDDFATYYCFQGSGYPFTFGGGTKLEIK	kon	M⁻¹ s⁻¹	185000
